# Test system: PmTbr T-box DNA-binding domain (GST fusion);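 note: 200 nM protein in PBS on universal arrays averaged over duplicate arrays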
# Sequence: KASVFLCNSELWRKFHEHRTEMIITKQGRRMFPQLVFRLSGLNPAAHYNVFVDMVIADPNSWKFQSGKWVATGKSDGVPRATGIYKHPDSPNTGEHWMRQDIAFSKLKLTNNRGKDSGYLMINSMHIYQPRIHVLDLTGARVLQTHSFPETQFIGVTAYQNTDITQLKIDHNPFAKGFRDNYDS
# PROTOCOL DETAILS: PBM E-score of 8-mer (E-score (dimensionless, -0.5 to 0.5)); higher = stronger binding preference
# CONDITION INFO: the construct has about 5 more residues each side
The full ranking holds about 33,000 sequences; the median of “E-score (dimensionless, -0.5 to 0.5)” is about -0.049, and the highest 2% start at about 0.37. What follows is part of a selection rich in the highest values, with near analogues and random picks from the rest.
QUANTITY: PBM E-score of 8-mer
API doc: respond with a numeric literal and nothing else, no unit.

Known results for sequences:
• CGCGTGAA = 0.398
• GGCGAACA = 0.0467
• GAGTCACA = 0.237
• CGCTTTCA = 0.0848
• GGCGTGAA = 0.467

The measured PBM E-score of 8-mer associated with CACACATA reads 0.365

The measured PBM E-score of 8-mer associated with AACACAGC reads 0.0601

The measured PBM E-score of 8-mer associated with CAACTGAG reads 0.0533

The measured PBM E-score of 8-mer associated with AGCGTGAA reads 0.381

The measured PBM E-score of 8-mer associated with CAATCGCC reads -0.0698

The measured PBM E-score of 8-mer associated with ATCACCGG reads -0.319

* * *

# Test system: PmTbr T-box DNA-binding domain (GST fusion);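 note: 200 nM protein in PBS on universal arrays averaged over duplicate arrays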
# Sequence: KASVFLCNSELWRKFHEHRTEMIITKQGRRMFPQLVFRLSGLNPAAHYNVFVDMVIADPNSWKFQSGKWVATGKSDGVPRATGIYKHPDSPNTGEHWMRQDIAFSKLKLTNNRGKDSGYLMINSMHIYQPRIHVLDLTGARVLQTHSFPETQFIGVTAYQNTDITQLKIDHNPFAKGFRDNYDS
# PROTOCOL DETAILS: PBM E-score of 8-mer (E-score (dimensionless, -0.5 to 0.5)); higher = stronger binding preference
# CONDITION INFO: target sequence: T-box / the construct has about 5 more residues each side
The full ranking holds about 33,000 sequences; the median of “E-score (dimensionless, -0.5 to 0.5)” is about -0.049, and the highest 2% start at about 0.37. The list comes from a sample in which the highest values are over-represented; it also holds close analogues and randomly drawn sequences.
In this scheme, each record receives a class according to its PBM E-score of 8-mer; the ranges are lower range: < 0.05; middle range: ≥ 0.05 and < 0.3; upper range: ≥ 0.3

Example results:
• ATAGCACC = upper range
• CCCGAGGG = lower range
• GGTAAACC = middle range

GET /class?item= ACGCGCGA
upper range

GET /class?item= CGGTGGCA
middle range

GET /class?item= CAGTGGTA
lower range

* * *

# key: entry, value: PBM E-score of 8-mer
# Test system: PmTbr T-box DNA-binding domain (GST fusion);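 note: 200 nM protein in PBS on universal arrays averaged over duplicate arrays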
# Sequence: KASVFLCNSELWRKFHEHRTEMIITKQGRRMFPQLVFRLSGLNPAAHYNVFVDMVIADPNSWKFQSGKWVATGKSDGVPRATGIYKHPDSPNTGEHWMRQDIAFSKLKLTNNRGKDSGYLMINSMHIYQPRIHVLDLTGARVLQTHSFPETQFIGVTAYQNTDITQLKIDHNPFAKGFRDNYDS
# PROTOCOL DETAILS: PBM E-score of 8-mer (E-score (dimensionless, -0.5 to 0.5)); higher = stronger binding preference
# CONDITION INFO: target sequence: T-box / the construct has about 5 more residues each side
Over roughly 33,000 sequences, “E-score (dimensionless, -0.5 to 0.5)” has its median near -0.049; the highest 2% begin near 0.37. Many of the other results were omitted from the sample, so the highest values are more common in it than they were.
API doc: respond with a numeric literal and nothing else, no unit.

• CATCACAG = 0.109

The measured PBM E-score of 8-mer associated with AGTTGGCG reads 0.229

The measured PBM E-score of 8-mer associated with TGTGAACA reads 0.422

* * *

# Test system: PmTbr T-box DNA-binding domain (GST fusion);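 note: 200 nM protein in PBS on universal arrays averaged over duplicate arrays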
# Sequence: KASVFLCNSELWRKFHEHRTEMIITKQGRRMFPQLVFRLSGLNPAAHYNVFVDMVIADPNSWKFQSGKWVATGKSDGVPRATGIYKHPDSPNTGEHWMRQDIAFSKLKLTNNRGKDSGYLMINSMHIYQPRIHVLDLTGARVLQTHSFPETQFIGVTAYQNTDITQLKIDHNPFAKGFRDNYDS
# PROTOCOL DETAILS: PBM E-score of 8-mer (E-score (dimensionless, -0.5 to 0.5)); higher = stronger binding preference
# CONDITION INFO: target sequence: T-box / the construct has about 5 more residues each side
Over roughly 33,000 sequences, “E-score (dimensionless, -0.5 to 0.5)” has its median near -0.049; the highest 2% begin near 0.37. The list comes from a sample in which the highest values are over-represented; it also holds close analogues and randomly drawn sequences.
Decide using PBM E-score of 8-mer: a value greater than or equal to 0.08 is 1 (yes), a smaller one is 0 (no).

Example results:
- AGTGTCAT: 1 (yes)
- CCGACACA: 1 (yes)
- ATGACACG: 1 (yes)
- GCGACACA: 1 (yes)

Determine whether this sequence has PBM E-score of 8-mer no lower than 0.08: CCCAACAC
1 (yes)

Determine whether this sequence has PBM E-score of 8-mer no lower than 0.08: GGGCGTGA
1 (yes)

Determine whether this sequence has PBM E-score of 8-mer no lower than 0.08: AATGTCAT
0 (no)

Determine whether this sequence has PBM E-score of 8-mer no lower than 0.08: CTGACATC
0 (no)

Determine whether this sequence has PBM E-score of 8-mer no lower than 0.08: CTCAACAC
1 (yes)

Determine whether this sequence has PBM E-score of 8-mer no lower than 0.08: CACAACAA
1 (yes)

Determine whether this sequence has PBM E-score of 8-mer no lower than 0.08: CCTAGTTC
0 (no)

Determine whether this sequence has PBM E-score of 8-mer no lower than 0.08: CAGAGGTC
0 (no)

* * *

# Tested on: PmTbr T-box DNA-binding domain (GST fusion);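 note: 200 nM protein in PBS on universal arrays averaged over duplicate arrays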
# Sequence: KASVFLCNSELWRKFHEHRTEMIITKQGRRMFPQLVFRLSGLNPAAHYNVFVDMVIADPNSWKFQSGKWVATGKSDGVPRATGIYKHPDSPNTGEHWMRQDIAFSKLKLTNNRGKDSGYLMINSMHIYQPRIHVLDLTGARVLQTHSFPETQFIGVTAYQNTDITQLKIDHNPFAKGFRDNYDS
# PROTOCOL DETAILS: PBM E-score of 8-mer (E-score (dimensionless, -0.5 to 0.5)); higher = stronger binding preference
# CONDITION INFO: target sequence: T-box / the construct has about 5 more residues each side
Over roughly 33,000 sequences, “E-score (dimensionless, -0.5 to 0.5)” has its median near -0.049; the highest 2% begin near 0.37. The entries come from a sample that favours the highest values as a whole.
QUANTITY: PBM E-score of 8-mer
API doc: respond with a numeric literal and nothing else, no unit.

Known results for sequences:
* CGCGAACC | 0.328
* GTAAGCTA | -0.266
* GAGTGAAA | 0.16
* AAGGTGCT | 0.441
* CTTCACCC | 0.0387
* CTAGTCAC | 0.0813

Per the reported PmTbr T-box DNA-binding domain (GST fusion) data, ATTCACAC has PBM E-score of 8-mer of 0.476

* * *

# Tested on: PmTbr T-box DNA-binding domain (GST fusion);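 note: 200 nM protein in PBS on universal arrays averaged over duplicate arrays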
# Sequence: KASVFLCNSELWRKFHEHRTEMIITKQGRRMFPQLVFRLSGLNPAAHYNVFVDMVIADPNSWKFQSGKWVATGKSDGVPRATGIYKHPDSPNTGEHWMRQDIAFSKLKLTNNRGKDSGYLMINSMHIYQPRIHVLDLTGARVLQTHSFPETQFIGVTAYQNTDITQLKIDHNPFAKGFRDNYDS
# PROTOCOL DETAILS: PBM E-score of 8-mer (E-score (dimensionless, -0.5 to 0.5)); Tbr is Tbrain of the sea star Patiria miniata (Pm) or the sea urchin Strongylocentrotus purpuratus (Sp); higher = stronger binding preference
# CONDITION INFO: target sequence: T-box / the construct has about 5 more residues each side
Over roughly 33,000 sequences, “E-score (dimensionless, -0.5 to 0.5)” has its median near -0.049; the highest 2% begin near 0.37. This is one part of a sample in which the highest values are shown more often than they occur.
# key: entry, value: PBM E-score of 8-mer
API doc: respond with a numeric literal and nothing else, no unit.

Known results for sequences:
• CATAGTAG = -0.286
• AGGACCAC = -0.253
• CTACATGA = -0.0685
• ACCAACGA = 0.0332
• GCCATTCA = 0.104

The measured PBM E-score of 8-mer associated with ACACTCCT reads 0.228

The measured PBM E-score of 8-mer associated with GCCTCTGA reads 0.0009

The measured PBM E-score of 8-mer associated with CACACAGG reads 0.119

The measured PBM E-score of 8-mer associated with GAACTGGA reads -0.175

The measured PBM E-score of 8-mer associated with ACGGCCAT reads -0.105

The measured PBM E-score of 8-mer associated with ATCTACCG reads -0.157
